# TARGET SYSTEM: T1, biotin-peptide SMEDYVNFNF (human)
# T1 peptide: Biotin-SMEDYVNFNF
# TEST: ELISA biotin-peptide; scFv 10 ug/mL; repI
# Description: The peptides were synthesized naked or with a N-terminal Biotin modification with a purity of >98%. All four scFvs were verified by ELISA that can be detected with anti-His antibodies. ELISA was performed for scFv-peptide binding validation. Briefly, naked peptides were coated (50 μg/mL) in 0.58M carbonate-bicarbonate buffer pH9.5, 100 μL/well, 4° C. […]
Where no end group is shown, it is not given here. The star is where a group is joined. Biotin = O=C1N[C@H]2[C@H](CS[C@H]2CCCCC(=O)*)N1
RECORDED ENDPOINT: OD450 (OD)
Give the value in OD but do not write OD after it.

Problem: Input CCR9_HUM2 scFv (humanized anti-CCR9 scFv, SEQ ID NO: 17 with C-terminal 6xHis tag) (scFv) scFv: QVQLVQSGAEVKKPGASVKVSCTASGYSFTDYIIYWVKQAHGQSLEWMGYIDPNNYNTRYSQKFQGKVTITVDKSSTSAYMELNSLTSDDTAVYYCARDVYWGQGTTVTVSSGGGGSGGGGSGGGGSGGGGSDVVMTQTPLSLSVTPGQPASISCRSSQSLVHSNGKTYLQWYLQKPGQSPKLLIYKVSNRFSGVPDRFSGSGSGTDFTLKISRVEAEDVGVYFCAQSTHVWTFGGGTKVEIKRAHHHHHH , output reported OD450.
Result: 2.48

Problem: Input Comparative antibody 1 (Comp-1) scFv, SEQ ID NO: 10 from WO2023/037125 A1, His-tagged (scFv) scFv: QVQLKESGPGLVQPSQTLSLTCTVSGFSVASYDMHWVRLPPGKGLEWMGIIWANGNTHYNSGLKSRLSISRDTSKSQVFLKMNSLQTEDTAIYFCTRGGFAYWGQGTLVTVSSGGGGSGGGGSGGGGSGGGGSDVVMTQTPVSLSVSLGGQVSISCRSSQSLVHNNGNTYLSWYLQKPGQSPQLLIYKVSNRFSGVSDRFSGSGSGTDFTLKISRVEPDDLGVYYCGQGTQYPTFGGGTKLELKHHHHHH , output reported OD450.
Result: 0.15

Problem: Input Comparative antibody 3 (Comp-3) scFv, SR_92R (Somovilla-Crespo et al. 2018), His-tagged (scFv) scFv: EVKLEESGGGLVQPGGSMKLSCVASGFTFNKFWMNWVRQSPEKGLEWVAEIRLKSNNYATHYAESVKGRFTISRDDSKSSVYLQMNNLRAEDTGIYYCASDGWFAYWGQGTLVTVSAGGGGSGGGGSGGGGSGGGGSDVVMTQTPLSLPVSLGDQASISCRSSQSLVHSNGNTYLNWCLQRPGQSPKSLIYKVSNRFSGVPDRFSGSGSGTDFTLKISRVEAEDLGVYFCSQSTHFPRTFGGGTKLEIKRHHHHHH , output reported OD450.
Result: 0.1

Problem: Input Comparative antibody 2 (Comp-2) scFv, 243LO326 (VH SEQ ID NO: 51 and VL SEQ ID NO: 52 of WO 2022/195028 A2), His-tagged (scFv) scFv: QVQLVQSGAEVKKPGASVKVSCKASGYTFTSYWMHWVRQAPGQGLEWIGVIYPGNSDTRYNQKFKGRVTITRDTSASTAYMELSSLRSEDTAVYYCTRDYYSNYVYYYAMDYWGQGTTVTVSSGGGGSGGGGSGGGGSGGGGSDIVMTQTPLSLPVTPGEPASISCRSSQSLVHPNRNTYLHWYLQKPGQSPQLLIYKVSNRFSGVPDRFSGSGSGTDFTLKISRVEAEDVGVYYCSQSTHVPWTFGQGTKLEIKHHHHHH , output reported OD450.
Result: 0.09
